The measurements presented in this section are drawn from patent US20040110802A1.

- Tested on: SAUR 9218
- PROTOCOL_SUMMARY: MIC Test Method, standard agar dilution
- Type: cell-based
- CONDITION_SUMMARY: agar dilution, Mueller Hinton agar, incubated overnight at 35° C.; lowest concentration that inhibits visible growth; read-out: SAUR 9218 MIC
# MIC annotations
MEASUREMENT_NAME: MIC (mg/L)

| MOLECULE | SIGN_QUALIFIER | ASSAY_VALUE |
| --- | --- | --- |
| Cc1noc(C)c1S(=O)(=O)Nc1cccc2cc(C(=O)Nc3ccc(C#N)cc3C(=O)O)n(C)c12 | = | 0.25 |
| CCn1c(C(=O)Nc2ccc(C#N)cc2C(=O)O)cc2ccccc21 | = | 1 |
| CC(C)n1c(C(=O)Nc2ccc(Br)cc2C(=O)O)cc2ccccc21 | = | 4 |
| N#Cc1ccc(NC(=O)c2cc(-c3ccccc3Oc3cccc(-c4ccccc4)c3)on2)c(C(=O)O)c1 | > | 128 |
| N#Cc1ccc(NC(=O)c2cnc(SCc3ccccc3)cn2)c(C(=O)O)c1 | = | 0.125 |
| COc1ccccc1-c1cc(C(=O)Nc2ccc(Br)cc2C(=O)O)no1 | = | 0.125 |
| N#Cc1ccc(NC(=O)c2cc3cccc4c3n2CC/C4=N\OCc2ccccc2)c(C(=O)O)c1 | = | 0.5 |
| CCCCCSc1cnc(C(=O)Nc2ccc(C#N)cc2C(=O)O)cn1 | = | 0.125 |
| COc1ccc(OC)c(NC(=O)Nc2ccc3cc(C(=O)Nc4ccc(C#N)cc4C(=O)O)n(C)c3c2)c1 | = | 2 |
| O=C(Nc1ccc(Br)cc1C(=O)O)c1cnc(SCc2ccccc2)cn1 | = | 0.125 |
| Cn1c(/C=C/c2ccc(C#N)cc2C(=O)O)cc2ccccc21 | = | 64 |
| Cc1cc(CC(=O)Nc2cccc3cc(C(=O)Nc4ccc(C#N)cc4C(=O)O)[nH]c23)on1 | = | 2 |
| CC(=O)Nc1ccc(-c2cc3onc(C(=O)Nc4ccc(Br)cc4C(=O)O)c3cc2NC(C)=O)c(C(F)(F)F)c1 | = | 0.0075 |
| N#Cc1ccc(NC(=O)c2cc3cccc(NC(=O)Cc4cccc(F)c4)c3[nH]2)c(C(=O)O)c1 | = | 0.25 |
| Cc1sc(C(=O)Nc2ccc(C#N)cc2C(=O)O)cc1S(=O)(=O)N(C)C1CCCCC1 | = | 8 |
| Cc1sc(C(=O)Nc2ccc(Br)cc2C(=O)O)cc1S(=O)(=O)N(C)c1ccc(Cl)cc1 | = | 2 |
| Cn1cccc1-c1cncc(C(=O)Nc2ccc(C#N)cc2C(=O)O)c1 | = | 8 |
| N#Cc1ccc(NC(=O)c2cnc(-c3ccccc3)cn2)c(C(=O)O)c1 | = | 64 |
| N#Cc1ccc(NC(=O)c2cc3cccc(NC(=O)c4cccc(F)c4)c3[nH]2)c(C(=O)O)c1 | = | 0.5 |
| Cn1c(C(=O)Nc2ccc(C#N)cc2C(=O)O)cc2cccc(OCC3COc4ccccc4O3)c21 (stereo not drawn) | = | 0.125 |
| O=C(Nc1ccc(Br)cc1C(=O)O)c1ccc(Br)o1 | = | 64 |
| N#Cc1ccc(NC(=O)c2cc(-c3ccccc3)on2)c(C(=O)O)c1 | = | 0.25 |
| N#Cc1ccc(NC(=O)c2cc(CCC(O)CO)on2)c(C(=O)O)c1 (stereo not drawn) | = | 8 |
| CC(C)(C)c1ccc(-c2cncc(C(=O)Nc3ccc(C#N)cc3C(=O)O)c2)cc1 | = | 32 |
| N#Cc1ccc(NC(=O)c2cc3cccc(NC(=O)c4ccccc4CCc4ccccc4)c3[nH]2)c(C(=O)O)c1 | = | 0.5 |
| COc1ccc2[nH]c(C(=O)Nc3ccc(C#N)cc3C(=O)O)cc2c1 | = | 128 |
| CCCCCCCSc1cnc(C(=O)Nc2ccc(C#N)cc2C(=O)O)cn1 | = | 0.25 |
| CCCCOc1ccc(C(=O)Nc2cccc3cc(C(=O)Nc4ccc(C#N)cc4C(=O)O)[nH]c23)cc1 | = | 2 |
| Cc1ccccc1CC(=O)Nc1cccc2cc(C(=O)Nc3ccc(C#N)cc3C(=O)O)[nH]c12 | = | 0.25 |
| Cn1c(C(=O)Nc2ccc(C#N)cc2C(=O)O)cc2ccc(Br)c(N)c21 | = | 0.5 |
| N#Cc1ccc(NC(=O)c2noc3cc(OCc4ccccc4)ccc23)c(C(=O)O)c1 | = | 0.25 |
| CCCCC(CC)C(=O)Nc1cccc2cc(C(=O)Nc3ccc(C#N)cc3C(=O)O)[nH]c12 (stereo not drawn) | = | 0.5 |
| CCCCCCOc1ccccc1-c1cc(C(=O)Nc2ccc(C#N)cc2C(=O)O)no1 | = | 0.5 |
| O=C(Nc1ccc(Br)cc1C(=O)O)c1ncc(-c2ccccc2)o1 | = | 1 |
| N#Cc1ccc(NC(=O)c2cc3cccc(NC(=O)CSc4ccccc4)c3[nH]2)c(C(=O)O)c1 | = | 0.5 |
| CCCCCCC(=O)Nc1cccc2cc(C(=O)Nc3ccc(C#N)cc3C(=O)O)[nH]c12 | = | 0.5 |
| Cn1c(C(=O)Nc2ccc(C#N)cc2C(=O)O)c(Br)c2cccc(OCc3ccccc3)c21 | = | 1 |
| N#Cc1ccc(NC(=O)c2cncc(SCc3ccccc3)n2)c(C(=O)O)c1 | = | 64 |
| COc1cccc(CC(=O)Nc2cccc3cc(C(=O)Nc4ccc(C#N)cc4C(=O)O)[nH]c23)c1 | = | 0.5 |
